Test system: Mus musculus
Assay: Toxicity in mouse P388 cells xenografted mouse assessed as change in body weight at 0.03 mg/kg, ip administered on day 1, 5 and day 9
Type: organism-based
Set-up: dose 0.03 mg/kg, route intraperitoneal
reportedProperty: body weight change (mg)

[[record]]
compound = "CC[C@H](C)[C@H]1NC(=O)[C@@H](NC(=O)[C@@H](CC(C)C)N(C)C(=O)[C@@H]2CCCN2C(=O)C(C)O)[C@@H](C)OC(=O)[C@H](Cc2ccc(OC)cc2)N(C)C(=O)[C@@H]2CCCN2C(=O)[C@H](CC(C)C)NC(=O)[C@@H](C)C(=O)[C@H](C(C)C)OC(=O)C[C@@H]1O (stereo partly specified)"
obsvalue = 1600

